# IC50 values compiled below
- System: SK-OV-3
- test.method.notes: Cytotoxicity against human SKOV3 cells after 48 hrs by MTT assay
- Type: functional, cell-based
- experimental.context: SK-OV-3, 48 h
Please state the figure in µM; there is no need to write the unit.

Use these answered entries as a reference point.
> print(dat)
                                   compound  data.value
1  CCOP(=O)(Cc1ccc(/N=C/c2cc3cc(OC)ccc3[nH]c2=O)cc1)OCC          53
2  CCOP(=O)(Cc1ccc(/N=C/c2cc3cc4c(cc3[nH]c2=O)OCO4)cc1)OCC        47.9
3  CCOP(=O)(OCC)C(Nc1ccc(F)cc1)c1cc2ccccc2[nH]c1=O (stereo not given)          41
4  CCOP(=O)(Cc1ccc(/N=C/c2cc3ccccc3[nH]c2=O)cc1)OCC          36

Q: Annotate the compound CCOP(=O)(OCC)C(Nc1cccc(C)c1)c1cc2cc(C)ccc2[nH]c1=O (stereo not given) with its measured IC50.
A: 342

###

- System: HepG2
- test.method.notes: Cytotoxicity against human HepG2 cells after 48 hrs by MTT assay
- Format: functional, cell-based
- experimental.context: HepG2, 48 h
property: pIC50
In plain terms, pIC50 is the concentration in mol/L turned into minus its base-10 logarithm.

Use these answered entries as a reference point.
> print(dat)
                                   compound  data.value
1  CCOP(=O)(OCC)C(Nc1ccc([N+](=O)[O-])cc1)c1cc2cc3c(cc2[nH]c1=O)OCO3 (stereo not given)        4.36
2  CCOP(=O)(OCC)C(Nc1cccc(C)c1)c1cc2ccccc2[nH]c1=O (stereo not given)        4.18
3  CCOP(=O)(OCC)C(Nc1ccc(C(F)(F)F)cc1)c1cc2cc(C)ccc2[nH]c1=O (stereo not given)        4.17

Q: Annotate the compound CCCCNC(c1cc2cc3c(cc2[nH]c1=O)OCO3)P(=O)(OCC)OCC (stereo not given) with its measured pIC50.
A: 4.33

Q: Annotate the compound CCCCNC(c1cc2ccccc2[nH]c1=O)P(=O)(OCC)OCC (stereo not given) with its measured pIC50.
A: 4.21

Q: Annotate the compound CCOP(=O)(OCC)C(Nc1cccc(C)c1)c1cc2cc(OC)ccc2[nH]c1=O (stereo not given) with its measured pIC50.
A: 4.34

Q: Annotate the compound CCOP(=O)(OCC)C(Nc1ccc(F)cc1)c1cc2ccccc2[nH]c1=O (stereo not given) with its measured pIC50.
A: 4.43

Q: Annotate the compound CCOP(=O)(OCC)C(Nc1ccc(F)cc1)c1cc2cc(C)ccc2[nH]c1=O (stereo not given) with its measured pIC50.
A: 4.34

###

- Tested on: SK-OV-3
- test.method.notes: Cytotoxicity against human SKOV3 cells after 48 hrs by MTT assay
- Assay type: functional, cell-based
- experimental.context: SK-OV-3, 48 h
property: pIC50
In plain terms, pIC50 is the concentration in mol/L turned into minus its base-10 logarithm.

Use these answered entries as a reference point.
> print(dat)
                                   molecule  data.value
1  CCOP(=O)(OCC)C(Nc1ccc(C)cc1)c1cc2cc3c(cc2[nH]c1=O)OCO3 (stereo unspecified)        4.31
2  CCOP(=O)(OCC)C(Nc1ccccc1)c1cc2cc(C)ccc2[nH]c1=O (stereo unspecified)        4.16
3  CCOP(=O)(OCC)C(Nc1ccccc1)c1cc2cc(OC)ccc2[nH]c1=O (stereo unspecified)        4.26
4  CCOP(=O)(OCC)C(Nc1ccc(C(F)(F)F)cc1)c1cc2cc3c(cc2[nH]c1=O)OCO3 (stereo unspecified)        4.65
5                   O=c1[nH]cc(F)c(=O)[nH]1        4.58
6  CCOP(=O)(OCC)C(Nc1cccc(C)c1)c1cc2ccccc2[nH]c1=O (stereo unspecified)        4.25

Q: Annotate the molecule CCCCNC(c1cc2cc(OC)ccc2[nH]c1=O)P(=O)(OCC)OCC (stereo unspecified) with its measured pIC50.
A: 4.24

Q: Annotate the molecule CCOP(=O)(OCC)C(Nc1ccc(C)cc1)c1cc2ccccc2[nH]c1=O (stereo unspecified) with its measured pIC50.
A: 4.18

Q: Annotate the molecule CCOP(=O)(OCC)C(Nc1ccccc1)c1cc2ccccc2[nH]c1=O (stereo unspecified) with its measured pIC50.
A: 4.27

Q: Annotate the molecule CCOP(=O)(OCC)C(Nc1ccc(F)cc1)c1cc2cc3c(cc2[nH]c1=O)OCO3 (stereo unspecified) with its measured pIC50.
A: 4.58

Q: Annotate the molecule CCOP(=O)(OCC)C(Nc1ccc(C)cc1)c1cc2cc(C)ccc2[nH]c1=O (stereo unspecified) with its measured pIC50.
A: 4.43

Q: Annotate the molecule CCCCNC(c1cc2ccccc2[nH]c1=O)P(=O)(OCC)OCC (stereo unspecified) with its measured pIC50.
A: 4.42

Q: Annotate the molecule CCOP(=O)(OCC)C(Nc1ccc(C(F)(F)F)cc1)c1cc2cc(C)ccc2[nH]c1=O (stereo unspecified) with its measured pIC50.
A: 3.72

Q: Annotate the molecule CCOP(=O)(OCC)C(Nc1cccc(C)c1)c1cc2cc(OC)ccc2[nH]c1=O (stereo unspecified) with its measured pIC50.
A: 4.14

Q: Annotate the molecule CCOP(=O)(OCC)C(Nc1ccc([N+](=O)[O-])cc1)c1cc2cc(OC)ccc2[nH]c1=O (stereo unspecified) with its measured pIC50.
A: 4.60

Q: Annotate the molecule CCOP(=O)(OCC)C(Nc1ccc([N+](=O)[O-])cc1)c1cc2cc3c(cc2[nH]c1=O)OCO3 (stereo unspecified) with its measured pIC50.
A: 4.55

Q: Annotate the molecule `CCOP(=O)(Cc1ccc(/N=C/c2cc3cc(C)ccc3[nH]c2=O)cc1)OCC` with its measured pIC50.
A: 4.46

Q: Annotate the molecule CCCCNC(c1cc2cc3c(cc2[nH]c1=O)OCO3)P(=O)(OCC)OCC (stereo unspecified) with its measured pIC50.
A: 4.43

Sourced from ChEMBL document CHEMBL4261516
